Tested on: MS2 coat protein
Measurement Description: apparent KD of MS2 coat protein; designed switch direction (-1 OFF switch, 1 ON switch): -1; higher = weaker reporter binding
Run Parameters: input ligand: FMN 200 uM
Listing of entries alongside the reported apparent KD of MS2 coat protein.
Quick reminder: number only, in nM, skip the unit.

Construct Sequence | Scale Unit | apparent KD of MS2 coat protein
AUCAGCUCGUGAGGAUAUACAUGAGGAUCACCCAUGUGAUCAAUAGCAGCUUCGGCUGCAUACAUGUAGAAGGCACGAGCUGAU [ENG2/6-A3] (Eterna round: R96, puzzle: Exclusion NG 2) | nM | 95.6

We now examine a further sequence.
INPUT: Fill in reported apparent KD of MS2 coat protein for this entry: AAUAACAAUGUGAGGAUAUCUAGAGCCUCGGCUCUAGAGAAGGCACAUGAGGAUCACCCAUGUCUCAAUAACAA [BmEx4/2-E7] (Eterna round: R97, puzzle: Brourd's mod of Exclusion 4)
OUTPUT: 502

* * *

Test system: MS2 coat protein
Measurement Description: apparent KD of MS2 coat protein; designed switch direction (-1 OFF switch, 1 ON switch): -1; higher = weaker reporter binding
Run Parameters: Eterna round: R95; input ligand: none
# label = fulfilled if apparent KD of MS2 coat protein >= 60 nM else not fulfilled

Construct Sequence | Tested On | Category
GGUUGGCGAGGAUAUACAUGAGGAUCACCCAUGUGAGAGAAAGAAGUGAGGAAGAAAAGUAGAAGGCGUUGACG [salish99_ex3_r3_053] (puzzle: Exclusion 3) | MS2 coat protein | fulfilled
GAUUAUGCGAGCUUUAGGGACAUGAGGAUCACCCAUGUUCGUCUUAUUAAUCUAGGUACGCUGACAUACCUAAAUCU [JMF 98] (puzzle: Sensor v3, turn-off variant 1) | MS2 coat protein | not fulfilled
GAGAAGGUAGGAUAUACGAAUAAAAAGGGUAGAAUAAGAACACAUGAGGAUCACCCAUGUAGAAGGACCAAGAG [Mat - Exclusion 2 - Mod of my Tesla design - D21] (puzzle: Exclusion 2) | MS2 coat protein | not fulfilled
AAUAAACAUGAGGAUCACCCAUGUGAGGAUAUGCAAAUAAAUAAAUAAAUAAAUAAUAGUAGAAGGCGCAAUAA [Excls1-I] (puzzle: Exclusion 1) | MS2 coat protein | fulfilled

INPUT: Could you verify whether the entry AGUCGGCGAGGAUAUACAUGAGGAUCACCCAUGUGGAAUCCUAGACCUGUAGGUCCAUGUAGAAGGCGCUGACA [Exclusion 3 - Was a mod at one point v.2] (puzzle: Exclusion 3) shows apparent KD of MS2 coat protein of no less than 60 nM?
OUTPUT: fulfilled

* * *

Test system: K4 kissing-loop RNA reporter;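 further: bound reporter read as fluorescence of individual clusters on recovered sequencing chips by microscopy, with normalized cluster intensities fitted with a binding model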
Measurement Description: apparent KD of K4 kissing-loop reporter; higher = weaker reporter binding
Run Parameters: Eterna round: R107; input ligand: none
Classes are defined on apparent KD of K4 kissing-loop reporter with ranges bin 0 (below 0.3 µM), bin 1 (0.3 µM to below 0.4 µM), bin 2 (0.4 µM or more)

Construct Sequence | Category
ACGUAGUACGUAGGAUAUCAGAGAUCAGUUAGUGAGAUCGAGUGAUGUUCGAUCAAGUGUUCAUUUUGAGAAGGAUGUAGUAGGA [KL-SSFMN-B7] | bin 1
AAGCAGUCACUCGAAGCCAUCGAAGAUGGCCGAGGACCGGUACGGCCGCCACUCGGAGUGAUGUUCCGAAGACUGCAAAAUAAAA | bin 1

INPUT: Entry AGUCCACUCUAAAGAGUGGACCUAAGGGAUACCAGUGAUGUUGGUCACCCUUGGCAGCCCAGGGCCCGGGAUAAACCCGGGCCCA [#09 K4 Theophylline A Exclusion] belongs to which category?
OUTPUT: bin 0

INPUT: Entry AAAUUUAUAUUAGAUACCAGCAAAUUGAAAGUUUAUUAUGACAAGAGUGAUGUUCUUGUAUGCCCUUGGCAGCUGGUAUGGGUUU [KL-XTheo-B26] belongs to which category?
OUTPUT: bin 0

INPUT: Entry CUCGUGGGUUUGAGAGGGCUUGUGGGAAGUGAGGAUAUUUAGGGAGAAAGAAGGCACUAUAGAAUAUAGUGAUGUUAUGUAAGGG [SSFMNA.O] belongs to which category?
OUTPUT: bin 2

INPUT: Entry AGAAGGAGAACUGCAAGAACUCCUUCAGACUAGGAUAUCAGGAAACUGAGAAGGAGUCAACUUGCAGUGAUGUUGCAAGAAUAAU [[F]''-[K]'-[F]'-[F1]-[F2]-[K1]-[K2]_Design1] belongs to which category?
OUTPUT: bin 0

INPUT: Entry GGGCCUGGGCCCGGAAGGGCCUGGGCCCGUUAGGAUAUGACGUGAUUCAGAAGGGAUGGGUGGAGUGAUGUUCCACCCGAGAGGG [#2 Same State - FMN A Attempt #25 (HarryS)] belongs to which category?
OUTPUT: bin 0

* * *

Test system: MS2 coat protein
Measurement Description: apparent KD of MS2 coat protein; designed switch direction (-1 OFF switch, 1 ON switch): -1; higher = weaker reporter binding
Run Parameters: input ligand: microRNA oligo, concentration not stated
Reported Endpoint: apparent KD of MS2 coat protein (nM)
Quick reminder: number only, in nM, skip the unit.

Answered examples (3):
Construct Sequence | Scale Unit | apparent KD of MS2 coat protein
AGAUGCUCAAGUCGACAUGAGGAUCACCCAUGUACAGUUAAUGAGGAUAUCCGAGAUAAAUAAUAGGAGAAGGUAUGAUCAUGA [Ex NG3 #5] (Eterna round: R96, puzzle: Exclusion NG 3) | nM | 175
GCUUCUGGGCAAGGAUAUCCUGCGCUGUUCUGGUUCGUGUCUGUCACAUGAGGAUCACCCAUGUGGGAGAAGGUGCCUGUGGUG [Design 69] (Eterna round: R96, puzzle: Exclusion NG 2) | nM | 11.3
UACAUGAGGAUCACCCAUGUUUUGUCGUGUAUGGUAUUUAUCUAGGAUAUCAAUUUAGUCAUUUAUGAGAAGGAGAAUAUUAAU [JMF's solution 74] (Eterna round: R96, puzzle: Exclusion NG 3) | nM | 28.6

INPUT: Fill in reported apparent KD of MS2 coat protein for this entry: UCGUUCCGUGUAGGAUAUUGGCCUUCCUCGGGCCGAGAAGGACAUGAGGAUCACCCAUGUAUGCUAUUAUCGCGCGUGGCGCAC [Design 96] (Eterna round: R96, puzzle: Exclusion NG 1)
OUTPUT: 24.5

INPUT: Fill in reported apparent KD of MS2 coat protein for this entry: UUAUUAUAUGUAGGAUAUGCAUAUUAUUAUUAUGCAGAAGGACAUGAGGAUCACCCAUGUAUAUUGUUGUUGUAUAUUAUAUAU [Title] (Eterna round: R96, puzzle: Exclusion NG 1)
OUTPUT: 20.9

* * *

System: MS2 coat protein
Measurement Description: apparent KD of MS2 coat protein; designed switch direction (-1 OFF switch, 1 ON switch): 1; higher = weaker reporter binding
Run Parameters: Eterna round: R95; input ligand: none
Reported Endpoint: apparent KD of MS2 coat protein (nM)
Quick reminder: number only, in nM, skip the unit.

Answered examples (3):
Construct Sequence | Measured Number
AUAAAACAUGAGGAUCACCCAUGUCUCCAAAGUCGAGGAUAUGGGCAAAUAAUAUAAGAACCAGAAGGCGAAUAAU [SS1 Teenbexe 2] (puzzle: Same State 1) | 374
CUACUACAUGAGGAUCACCCAUGUUAUAGUGAUGCAGGAUAUGUGUGACCAGAAGAUGAAACAGAAGGGCAAAGAA [JR_SS!_Sub001] (puzzle: Same State 1) | 30.1
GUAAAACAUGAGGAUCACCCAUGUAAUAAUAUGGGAGGAUAUCUGAUUUAAUUUAAUUUAAGAGAAGGCCUAAAUG [Mat - Same State 1 - Mod of Eli - D58] (puzzle: Same State 1) | 608

INPUT: Tell me apparent KD of MS2 coat protein of UGUCCAGCCUGAGCUGGACAAAAGCAUGUACAUGAGGAUCACCCAUGUUCAUGUACAAGCUUUUUGCUCGUCUUAGC [salish99_208a_r3_067] (puzzle: Sensor for hsa-mir-208a) when tested on MS2 coat protein.
OUTPUT: 547

INPUT: Tell me apparent KD of MS2 coat protein of AACAAUCUAUCUGAGGAUAUCAUGAAAUAAACAUGAGGAUCACCCAUGUGCAGGAAAACUGCAUAUUAGAAGGCAGAUAGAUUGA [salish99_ss2_r3_049] (puzzle: Same State 2) when tested on MS2 coat protein.
OUTPUT: 151

INPUT: Tell me apparent KD of MS2 coat protein of GAAAAGGCGACGCAGGAUAUGAAAGGUGAAACAUGAGGAUCACCCAUGUGCUACCUUCCGAUAAAUCAGAAGGGCGACGCCUAGA [Azaanre] (puzzle: Same State 2) when tested on MS2 coat protein.
OUTPUT: 11.3

INPUT: Tell me apparent KD of MS2 coat protein of CGUCGCUGUCGAGAGGAUAUGCGGUGAUGGACAUGAGGAUCACCCAUGUUAGCGAUAGCAUCGCGGCAGAAGGCUCUUACGACUG [Soteed Omei mod 28] (puzzle: Same State 2) when tested on MS2 coat protein.
OUTPUT: 23.7

INPUT: Tell me apparent KD of MS2 coat protein of GCCCAUAGUAUAUGGGUACAAGCUUUUUGACAUGAGGAUCACCCAUGUACUCGUCUUAUGUGCAGUCCGUAGACUGC [JL-shm-2.18 Brourd mod] (puzzle: Sensor for hsa-mir-208a) when tested on MS2 coat protein.
OUTPUT: 66.6

Hey, just so you know, these numbers are from the supplement of paper PMC9170038.
